MEASURE: IC50

Provide measured IC50 on Human sEH (hsEH) (Homo sapiens) for `Oc1ccc(-c2nc3cc(F)c(F)cc3[nH]2)cc1` please.
Sequence (P34913 whole entry): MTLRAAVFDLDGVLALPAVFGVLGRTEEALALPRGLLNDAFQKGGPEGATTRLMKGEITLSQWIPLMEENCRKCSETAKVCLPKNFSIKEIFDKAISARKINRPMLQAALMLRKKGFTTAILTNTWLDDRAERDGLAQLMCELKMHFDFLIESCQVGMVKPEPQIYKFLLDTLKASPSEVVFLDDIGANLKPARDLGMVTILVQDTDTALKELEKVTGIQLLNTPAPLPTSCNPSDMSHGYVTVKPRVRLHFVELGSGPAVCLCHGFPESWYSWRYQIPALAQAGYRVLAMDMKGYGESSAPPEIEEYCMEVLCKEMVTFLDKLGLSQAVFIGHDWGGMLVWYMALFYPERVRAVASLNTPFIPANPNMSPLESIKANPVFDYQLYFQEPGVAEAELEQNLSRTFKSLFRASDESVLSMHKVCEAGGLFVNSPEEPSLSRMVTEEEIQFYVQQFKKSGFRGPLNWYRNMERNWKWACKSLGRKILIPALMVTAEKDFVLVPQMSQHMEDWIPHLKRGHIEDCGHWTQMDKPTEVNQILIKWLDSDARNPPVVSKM
≥ 10 µM

Provide measured IC50 on Human sEH (hsEH) (Homo sapiens) for `FC(F)(F)c1ccc(-c2nc3cc(Br)c(Br)cc3[nH]2)cc1` please.
≥ 10 µM

Provide measured IC50 on Human sEH (hsEH) (Homo sapiens) for `Fc1cc2nc(-c3ccc(-c4ccccc4)cc3)[nH]c2cc1Br` please.
≤ 1 µM

Provide measured IC50 on Human sEH (hsEH) (Homo sapiens) for `CCc1ccc(-c2nc3cc(C)c(C)cc3[nH]2)cc1` please.
≤ 1 µM

Provide measured IC50 on Human sEH (hsEH) (Homo sapiens) for `Fc1cc2nc(-c3ccc(-c4ccncc4)cc3)[nH]c2cc1F` please.
1 to 10 µM

Provide measured IC50 on Human sEH (hsEH) (Homo sapiens) for `Cc1cc2nc(-c3ccc(C(F)(F)F)cc3)[nH]c2cc1C` please.
≤ 1 µM

Provide measured IC50 on Human sEH (hsEH) (Homo sapiens) for `Fc1cc2nc(-c3ccoc3)[nH]c2cc1F` please.
≥ 10 µM

Provide measured IC50 on Human sEH (hsEH) (Homo sapiens) for c1ccc(-c2nc3ccccc3[nH]2)c(-c2nc3ccccc3[nH]2)c1 [Compound 15, 1,2-bis(1H-benzo[d]imidazol-2-yl)benzene] please.
≥ 10 µM

Provide measured IC50 on Human sEH (hsEH) (Homo sapiens) for `Cc1cc2nc(-c3ccc4ccccc4c3)[nH]c2cc1C` please.
≤ 1 µM

* * *

Exercise: state measured IC50 for each of the molecules provided.
Molecular target: Human sEH (hsEH) (Homo sapiens)
Construct: purchased Cayman Chemicals
Experiment: fluorescence-based sEH biochemical inhibition assay (PHOME substrate)
Details: Table 1; hsEH 5 nM, PHOME 50 μM, 30° C.

Provide measured IC50 on Human sEH (hsEH) (Homo sapiens) for `COC(=O)c1ccc(-c2nc3cc(F)c(F)cc3[nH]2)cc1` please.
≥ 10 µM

Provide measured IC50 on Human sEH (hsEH) (Homo sapiens) for `O=C(O)c1ccc(-c2nc3cc(F)c(F)cc3[nH]2)cc1` please.
≤ 1 µM

Provide measured IC50 on Human sEH (hsEH) (Homo sapiens) for `Cc1cc2nc(-c3ccncc3)[nH]c2cc1C` please.
≥ 10 µM

Provide measured IC50 on Human sEH (hsEH) (Homo sapiens) for `Fc1ccc2[nH]c(-c3ccc(-c4ccccc4)cc3)nc2c1F` please.
≥ 10 µM

Provide measured IC50 on Human sEH (hsEH) (Homo sapiens) for `COc1cc(-c2nc3cc(C)c(C)cc3[nH]2)ccn1` please.
1 to 10 µM

Provide measured IC50 on Human sEH (hsEH) (Homo sapiens) for `Cc1ccc(-c2nc3cc(C)c(C)cc3[nH]2)cn1` please.
1 to 10 µM

Provide measured IC50 on Human sEH (hsEH) (Homo sapiens) for `C[C@H](N)c1nc2cc(F)c(F)cc2[nH]1` please.
≥ 10 µM

Provide measured IC50 on Human sEH (hsEH) (Homo sapiens) for `Cc1noc(-c2ccc(-c3nc4cc(F)c(F)cc4[nH]3)cc2)n1` please.
≥ 10 µM

Provide measured IC50 on Human sEH (hsEH) (Homo sapiens) for `Fc1ccc(Oc2ccc(-c3nc4cc(F)c(F)cc4[nH]3)cc2)cc1` please.
≤ 1 µM

Provide measured IC50 on Human sEH (hsEH) (Homo sapiens) for `Cc1cc2nc(-c3ccc(F)cn3)[nH]c2cc1C` please.
1 to 10 µM

Provide measured IC50 on Human sEH (hsEH) (Homo sapiens) for CCc1ccc(-c2nc3ccccc3[nH]2)cc1 [Compound 37, 2-(4-ethylphenyl)-1H-benzo[d]imidazole] please.
1 to 10 µM
